koff: recorded values
# target.entity: T1, Extracellular domain of cyno PD1 (cPD1-ECD) (Macaca fascicularis (cynomolgus))
# T1 construct: Expressed with a hexahistidine tag or as Fc fusion; also called cynoPD1-ECD; cynoPD-1-ECD
# T1 chain: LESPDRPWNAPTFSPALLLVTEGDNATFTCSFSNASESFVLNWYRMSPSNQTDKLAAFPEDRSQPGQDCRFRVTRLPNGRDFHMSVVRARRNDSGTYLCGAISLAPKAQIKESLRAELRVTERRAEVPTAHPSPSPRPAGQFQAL
# experimental.details: SPR ProteOn, cynoPD1-ECD; RANGE high replicate; RANGE high replicate
Please give a number only; it is taken to be in s⁻¹.

binder	experimental.readout	result.value
PD1B192 (antibody, human IgG2, kappa, V domains shown, IgG2sigma/kappa; VH 43, VL 57; also called PD1H3/PD1L133) VH: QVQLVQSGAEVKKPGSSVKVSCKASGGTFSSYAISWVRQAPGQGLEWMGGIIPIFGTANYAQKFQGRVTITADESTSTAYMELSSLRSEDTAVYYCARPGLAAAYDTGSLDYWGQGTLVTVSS VL: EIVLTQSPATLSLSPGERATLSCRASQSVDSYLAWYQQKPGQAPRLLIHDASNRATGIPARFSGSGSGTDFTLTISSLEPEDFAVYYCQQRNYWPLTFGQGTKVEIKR	koff	0.00522

Now examine the next entry.
Problem: Report koff for PD1B177 (antibody, V domains shown, Tested as IgG2sigma; also called PD1H164/PH9L3) VH: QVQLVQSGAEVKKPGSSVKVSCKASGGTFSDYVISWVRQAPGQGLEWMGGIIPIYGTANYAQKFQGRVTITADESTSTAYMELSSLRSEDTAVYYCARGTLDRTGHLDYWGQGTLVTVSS VL: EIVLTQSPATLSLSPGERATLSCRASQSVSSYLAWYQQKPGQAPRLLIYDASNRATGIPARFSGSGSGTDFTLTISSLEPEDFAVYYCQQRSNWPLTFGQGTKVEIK please.
Result: 0.00193

// provenance: patent US20210277110A1
